# Assay system: viral kinase pUL-97 (Human cytomegalovirus, UniProt P16788)
# Construct: The pUL-97 gene was cloned into a baculovirus vector; GST (glutathione S-transferase) (N); made in house; host or cells: Sf9 insect cells, baculovirus
# Sequence (P16788 whole entry): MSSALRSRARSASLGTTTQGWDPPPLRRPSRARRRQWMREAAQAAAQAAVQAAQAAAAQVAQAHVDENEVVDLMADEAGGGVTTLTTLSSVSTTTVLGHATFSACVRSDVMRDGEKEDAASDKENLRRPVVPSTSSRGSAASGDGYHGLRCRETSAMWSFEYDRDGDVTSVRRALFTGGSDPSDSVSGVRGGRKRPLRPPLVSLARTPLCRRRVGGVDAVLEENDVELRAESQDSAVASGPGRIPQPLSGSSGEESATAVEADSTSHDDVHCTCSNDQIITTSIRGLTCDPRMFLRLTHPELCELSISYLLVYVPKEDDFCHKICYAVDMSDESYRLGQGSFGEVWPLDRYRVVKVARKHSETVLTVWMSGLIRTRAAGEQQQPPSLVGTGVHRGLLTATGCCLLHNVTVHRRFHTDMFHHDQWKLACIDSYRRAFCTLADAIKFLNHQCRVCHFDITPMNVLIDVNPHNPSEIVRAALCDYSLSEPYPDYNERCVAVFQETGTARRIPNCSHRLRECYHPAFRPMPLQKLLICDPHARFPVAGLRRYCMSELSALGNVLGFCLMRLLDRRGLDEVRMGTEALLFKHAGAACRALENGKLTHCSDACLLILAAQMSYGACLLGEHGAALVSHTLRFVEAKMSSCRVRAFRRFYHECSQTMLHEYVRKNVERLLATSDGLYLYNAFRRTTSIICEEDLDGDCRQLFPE
# Procedure text: UL97 kinase assay on Immobilon plate
# Assay type: biochemical
# Measurement conditions: inhibition of UL 97 kinase activity; class by IC50 / % inhibition at 10 or 100 μM; read-out: Activity Class [A, B, C]
pIC50: −log10 of the molar value.
Observation type: pIC50

COc1cccc(-c2cncc(N3CCN(c4ccccc4OC)CC3)n2)c1 [compound 105]: 5.00 to 6.00
Cc1ccccc1-c1cncc(N2CCN(c3ccccc3)CC2)n1 [compound 94]: 4.00 to 5.00
Cc1ccc(-c2cncc(NCc3ccco3)n2)cc1C [compound 51]: 4.00 to 5.00
Fc1cccc(-c2cncc(N3CCN(c4ccccn4)CC3)n2)c1 [compound 56]: 4.00 to 5.00
CN(C)c1ccc(-c2cncc(N3CCN(c4ccccc4)CC3)n2)cc1 [compound 190]: 5.00 to 6.00
c1ccc(-c2cncc(N3CCN(c4ccccn4)CC3)n2)cc1 [compound 49]: 5.00 to 6.00
FC(F)(F)c1cccc(N2CCN(c3cncc(-c4csc5ccccc45)n3)CC2)c1 [compound 158]: 4.00 to 5.00
COc1ccccc1N1CCN(c2cncc(-c3ccc(N(C)C)cc3)n2)CC1 [compound 186]: 4.00 to 5.00
CC(=O)c1ccc(-c2cncc(N3CCN(c4ccncc4)CC3)n2)s1 [compound 65]: > 6.00

###

# Assay system: viral kinase pUL-97 (Human cytomegalovirus, UniProt P16788)
# Construct: The pUL-97 gene was cloned into a baculovirus vector; GST (glutathione S-transferase) (N); made in house; host or cells: Sf9 insect cells, baculovirus
# Procedure text: UL97 kinase assay on Immobilon plate
# Assay type: biochemical
# Measurement conditions: inhibition of UL 97 kinase activity; class by IC50 / % inhibition at 10 μM or 100 μM; read-out: Activity Class [A, B, C]
# Experimental: UL97 Kinase-Assay on Immobilon Plate The effect of pyrazine derivatives of this invention was tested on the activity of the viral kinase pUL-97. […] Measuring Incorporation of Radioactivity: The Immobilon plate (Millipore) was rinsed with 50 μl methanol/well. […] After addition of 50 μl scintillation cocktail (Roth, Germany) per well incorporation of radioactivity was measured using a Betareader (Wallac) and enzymatic activity calculated.
pIC50: −log10 of the molar value.
Observation type: pIC50

Cc1cc(C)cc(-c2cncc(N3CCN(c4cccc(C)c4C)CC3)n2)c1: 4.00 to 5.00
Cc1cccc(N2CCN(c3cncc(-c4csc5ccccc45)n3)CC2C)c1 (stereo not drawn): 4.00 to 5.00
Cc1cccc(-c2cncc(N3CCN(c4ccc(F)cc4)CC3)n2)c1: 4.00 to 5.00
COc1ccc(N2CCN(c3cncc(-c4cccc(C)c4)n3)CC2)cc1OC: 5.00 to 6.00
c1ccc(N2CCN(c3cncc(-c4csc5ccccc45)n3)CC2)cc1: 5.00 to 6.00
COc1ccc(OC)c(-c2cncc(N3CCN(c4ccc(F)cc4)CC3)n2)c1: 4.00 to 5.00
FC(F)(F)c1ccc(N2CCN(c3cncc(-c4ccc5ccccc5c4)n3)CC2)cc1: 5.00 to 6.00
COc1cccc(-c2cncc(N3CCN(c4ccccn4)CC3)n2)c1: 5.00 to 6.00
CC(=O)c1ccccc1-c1cncc(N2CCN(c3ccncc3)CC2)n1: 4.00 to 5.00

Numbers sourced from patent US20080194574A1.
